- measurement-target: CDK12–cyclin K and DDB1 (Homo sapiens, UniProt Q16531+Q9NYV4, K965R)
- Construct: His6–CDK12 (a.a. 713–1,052); full-length or beta-propeller B domain deletion (ΔBPB: a.a. 396–705 deleted) constructs of His6–DDB1ΔBPB, StrepII–Avi–DDB1, or His6–Spy–DDB1; made in house; host or cells: Trichoplusia ni High Five insect cells (baculovirus)
- Sequence (Q9NYV4 713-1052 K965R): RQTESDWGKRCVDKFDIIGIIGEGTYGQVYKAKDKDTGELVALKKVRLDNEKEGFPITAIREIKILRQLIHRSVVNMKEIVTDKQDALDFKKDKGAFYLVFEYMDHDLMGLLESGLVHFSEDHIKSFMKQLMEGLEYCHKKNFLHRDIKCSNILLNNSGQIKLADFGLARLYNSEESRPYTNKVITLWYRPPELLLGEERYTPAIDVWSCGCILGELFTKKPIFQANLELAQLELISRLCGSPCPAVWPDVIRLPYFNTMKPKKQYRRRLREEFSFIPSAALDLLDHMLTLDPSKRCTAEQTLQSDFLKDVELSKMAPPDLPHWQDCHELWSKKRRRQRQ
- Sequence (O75909 1-267 partner): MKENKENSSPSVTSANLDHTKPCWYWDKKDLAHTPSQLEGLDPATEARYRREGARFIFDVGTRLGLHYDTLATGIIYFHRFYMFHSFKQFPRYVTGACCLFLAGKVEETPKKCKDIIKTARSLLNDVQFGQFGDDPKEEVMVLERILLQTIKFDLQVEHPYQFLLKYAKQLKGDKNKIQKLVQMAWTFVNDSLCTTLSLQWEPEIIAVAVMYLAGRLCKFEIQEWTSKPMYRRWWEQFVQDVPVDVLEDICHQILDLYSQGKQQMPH
- Sequence (Q16531 whole entry): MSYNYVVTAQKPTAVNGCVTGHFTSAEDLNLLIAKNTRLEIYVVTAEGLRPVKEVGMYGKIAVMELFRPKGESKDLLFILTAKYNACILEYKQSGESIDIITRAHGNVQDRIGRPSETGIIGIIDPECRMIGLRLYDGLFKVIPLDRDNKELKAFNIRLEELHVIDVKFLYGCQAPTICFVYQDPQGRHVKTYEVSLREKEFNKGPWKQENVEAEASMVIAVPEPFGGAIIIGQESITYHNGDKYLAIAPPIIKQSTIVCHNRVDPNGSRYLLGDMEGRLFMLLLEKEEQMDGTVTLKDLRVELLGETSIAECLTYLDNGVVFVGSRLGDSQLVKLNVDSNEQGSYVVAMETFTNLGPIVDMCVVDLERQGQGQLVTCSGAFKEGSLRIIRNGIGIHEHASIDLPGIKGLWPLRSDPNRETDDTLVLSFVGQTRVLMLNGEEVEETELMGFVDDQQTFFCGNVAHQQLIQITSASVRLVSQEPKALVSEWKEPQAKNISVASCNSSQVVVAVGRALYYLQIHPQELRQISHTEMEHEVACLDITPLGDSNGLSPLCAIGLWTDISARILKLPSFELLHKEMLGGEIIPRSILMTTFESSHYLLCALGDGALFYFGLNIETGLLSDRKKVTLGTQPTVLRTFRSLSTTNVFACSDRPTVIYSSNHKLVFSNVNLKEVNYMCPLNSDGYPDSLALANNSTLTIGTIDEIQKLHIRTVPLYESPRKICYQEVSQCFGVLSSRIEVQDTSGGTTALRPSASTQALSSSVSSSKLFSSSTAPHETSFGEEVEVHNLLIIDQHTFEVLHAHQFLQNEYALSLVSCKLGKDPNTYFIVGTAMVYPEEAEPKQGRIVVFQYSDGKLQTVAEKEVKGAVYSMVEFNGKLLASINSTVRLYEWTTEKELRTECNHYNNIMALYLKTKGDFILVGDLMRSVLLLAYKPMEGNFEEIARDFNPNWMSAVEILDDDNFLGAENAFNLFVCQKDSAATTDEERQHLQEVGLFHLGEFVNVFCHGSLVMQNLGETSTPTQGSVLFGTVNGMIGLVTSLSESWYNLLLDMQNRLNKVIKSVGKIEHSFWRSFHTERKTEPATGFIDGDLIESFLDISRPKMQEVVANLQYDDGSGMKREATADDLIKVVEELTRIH
- assay-text: TR-FRET ternary complex formation assay (compound titration)
- Format: binding
- condition-description: in vitro complex formation, 50 nM CDK12–cyclin K, 100 nM DDB1; text and figures; read-out: TR-FRET EC50
pEC50: −log10 of the molar value.
assay-endpoint: pEC50

CC[C@H](CO)Nc1nc(NCc2ccc(-c3ccncc3)cc2)c2ncn(C(C)C)c2n1
7.44

A. C[C@H](C(=O)Nc1nc2ccccc2[nH]1)N1Cc2ccccc2C1=O
B. CC(C)n1cnc2c(NCc3nc4cc(Cl)c(Cl)cc4[nH]3)nc(N3CCOCC3)nc21
Prompt: // max by pEC50 over [ A , B ] # reply format: chosen label
Completion: B
(B: 8.05, A: 7.42)
